Each recorded value in this set is attributed to ChEMBL document CHEMBL3352189.

- measured_target: UniProt Q12809
- Sequence (Q12809 whole entry): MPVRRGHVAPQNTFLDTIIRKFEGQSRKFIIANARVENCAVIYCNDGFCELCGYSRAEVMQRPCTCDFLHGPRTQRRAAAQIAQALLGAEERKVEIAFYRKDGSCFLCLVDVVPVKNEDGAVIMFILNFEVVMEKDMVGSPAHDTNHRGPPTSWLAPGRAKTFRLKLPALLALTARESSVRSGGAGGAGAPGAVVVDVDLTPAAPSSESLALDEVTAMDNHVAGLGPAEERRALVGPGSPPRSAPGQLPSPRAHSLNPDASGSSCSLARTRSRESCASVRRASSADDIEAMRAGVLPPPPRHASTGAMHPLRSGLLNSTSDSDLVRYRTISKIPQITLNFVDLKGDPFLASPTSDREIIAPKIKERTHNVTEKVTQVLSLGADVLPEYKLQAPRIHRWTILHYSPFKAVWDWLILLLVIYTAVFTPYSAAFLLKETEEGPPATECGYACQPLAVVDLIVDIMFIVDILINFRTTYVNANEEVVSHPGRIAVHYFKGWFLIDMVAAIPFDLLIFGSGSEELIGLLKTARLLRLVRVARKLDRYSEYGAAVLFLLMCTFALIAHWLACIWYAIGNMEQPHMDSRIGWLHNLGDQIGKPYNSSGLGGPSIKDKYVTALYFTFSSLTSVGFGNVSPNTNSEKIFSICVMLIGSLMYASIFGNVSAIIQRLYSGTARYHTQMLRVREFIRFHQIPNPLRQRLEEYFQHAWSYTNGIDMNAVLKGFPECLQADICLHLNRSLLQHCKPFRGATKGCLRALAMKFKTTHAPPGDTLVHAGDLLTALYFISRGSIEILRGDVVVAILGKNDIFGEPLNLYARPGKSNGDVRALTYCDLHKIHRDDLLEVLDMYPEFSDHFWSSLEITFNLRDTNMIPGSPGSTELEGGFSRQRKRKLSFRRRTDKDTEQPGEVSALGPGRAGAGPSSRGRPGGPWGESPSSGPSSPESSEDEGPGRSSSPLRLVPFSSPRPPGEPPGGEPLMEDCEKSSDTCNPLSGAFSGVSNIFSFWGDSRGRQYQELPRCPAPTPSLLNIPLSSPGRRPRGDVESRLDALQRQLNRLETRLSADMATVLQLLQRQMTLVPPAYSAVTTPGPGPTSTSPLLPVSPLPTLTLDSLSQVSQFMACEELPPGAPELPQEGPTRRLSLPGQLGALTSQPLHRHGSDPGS
- assay_overview: Displacement of [3H]astemizole from human ERG channel at 10 uM
- condition_details: probe [3H]astemizole
experimental_readout: inhibition at 10 µM (%)

chemical_string=CN1CCN(C)/C(=N/c2ccc([N+](=O)[O-])cc2C(=O)Nc2ccccc2)C1 experimental_readout="inhibition at 10 µM" recorded_value=30

###

- assay_overview: Plasma concentration in C57BL/6 mouse at 10 mg/kg, ip administered as single dose measured after 120 mins by LC/MS analysis based RACE assay
- Type: ADME, organism-based
- Parameters: dose 10 mg/kg, route intraperitoneal
experimental_readout: concentration at 2 h (nM)

chemical_string=CN1CCN(C)/C(=N/c2ccc([N+](=O)[O-])cc2C(=O)Nc2ccccc2)C1 experimental_readout="concentration at 2 h" unit_text=nM recorded_value=490

###

- assay_overview: Chemical stability in presence of 5x DTT assessed as parent compound remaining incubated for 8 hrs
- Assay type: physicochemical
- condition_details: read-out: Stability
experimental_readout: remaining at 8 h (%)

chemical_string=CN1CCN(C)/C(=N/c2ccc([N+](=O)[O-])cc2C(=O)Nc2ccccc2)C1 unit_text=% recorded_value=99

###

- measured_target: L-type calcium channel, dihydropyridine site (Rattus norvegicus, UniProt P22002+P27732+Q02485)
- assay_overview: Displacement of [3H]nitrendipine from rat calcium channel L-Type dihydropyridine site at 10 uM
- Format: protein assay
- condition_details: probe [3H]nitrendipine
experimental_readout: inhibition at 10 µM (%)

chemical_string=CN1CCN(C)/C(=N/c2ccc([N+](=O)[O-])cc2C(=O)Nc2ccccc2)C1 recorded_value=4.51

###

- Test system: Venezuelan equine encephalitis virus
- assay_overview: Antiviral activity against Venezuelan equine encephalitis virus TC83 infected in Vero 76 cells assessed as reduction in virus-induced cytopathic effect after 2 days by Celltiter-Glo reagent based assay
- Format: functional, organism-based
- condition_details: TC83, Vero 76, 48 h
pEC50: −log10 of the molar value.
Catalogue of molecules with associated pEC50
experimental_readout: pEC50

chemical_string=O=c1c2cc([N+](=O)[O-])ccc2nc(CN2CCCNCC2)n1-c1ccccc1 measured_target="Venezuelan equine encephalitis virus" experimental_readout=pEC50 comparative_sign== recorded_value=6.05
chemical_string=CCN1CCN(Cc2nc3ccc(-c4ccccn4)cc3c(=O)n2-c2ccccc2)CC1 measured_target="Venezuelan equine encephalitis virus" experimental_readout=pEC50 comparative_sign=< recorded_value=4.60
chemical_string=CN1CCN(Cc2nc3ccc([N+](=O)[O-])cc3c(=O)n2-c2ccccc2F)CC1 measured_target="Venezuelan equine encephalitis virus" experimental_readout=pEC50 comparative_sign== recorded_value=6.10
chemical_string=CN1CCN(C)/C(=N/c2ccc(F)cc2C(=O)Nc2ccccc2)C1 measured_target="Venezuelan equine encephalitis virus" experimental_readout=pEC50 comparative_sign== recorded_value=5.19
chemical_string=O=c1c2cc([N+](=O)[O-])ccc2nc(CN2CCNCC2)n1-c1ccccc1 measured_target="Venezuelan equine encephalitis virus" experimental_readout=pEC50 comparative_sign== recorded_value=6.70
chemical_string=CCN1CCN(Cc2nc3ccccc3c(=O)n2-c2ccccc2F)CC1 measured_target="Venezuelan equine encephalitis virus" experimental_readout=pEC50 comparative_sign=< recorded_value=4.60
chemical_string=CN1CCN(C)/C(=N/c2ccc([N+](=O)[O-])cc2C(=O)Nc2ccc(F)cc2)C1 measured_target="Venezuelan equine encephalitis virus" experimental_readout=pEC50 comparative_sign== recorded_value=7.05
chemical_string=CN1CCN(C)/C(=N/c2cc(F)c(C#N)cc2C(=O)Nc2ccccc2)C1 measured_target="Venezuelan equine encephalitis virus" experimental_readout=pEC50 comparative_sign== recorded_value=6.40
chemical_string=COc1ccc(-n2c(CN3CCNCC3)nc3ccc([N+](=O)[O-])cc3c2=O)cc1 measured_target="Venezuelan equine encephalitis virus" experimental_readout=pEC50 comparative_sign== recorded_value=6.70
chemical_string=CCN1CCN(Cc2nc3ccc([N+](=O)[O-])cc3c(=O)n2C)CC1 measured_target="Venezuelan equine encephalitis virus" experimental_readout=pEC50 comparative_sign=< recorded_value=4.60
chemical_string=CCN1CCN(Cc2nc3ccc(C(=O)N(C)C)cc3c(=O)n2-c2ccccc2)CC1 measured_target="Venezuelan equine encephalitis virus" experimental_readout=pEC50 comparative_sign=< recorded_value=4.60
chemical_string=CN1CCN(C)/C(=N/c2ccc(C(F)(F)F)cc2C(=O)Nc2ccccc2)C1 measured_target="Venezuelan equine encephalitis virus" experimental_readout=pEC50 comparative_sign== recorded_value=4.65
chemical_string=COc1ccccc1NC(=O)c1cc([N+](=O)[O-])ccc1/N=C1\CN(C)CCN1C measured_target="Venezuelan equine encephalitis virus" experimental_readout=pEC50 comparative_sign== recorded_value=4.47
chemical_string=CCN1CCN(Cc2nc3ccc([N+](=O)[O-])cc3c(=O)[nH]2)CC1 measured_target="Venezuelan equine encephalitis virus" experimental_readout=pEC50 comparative_sign=< recorded_value=4.60
chemical_string=CN1CCN(C)/C(=N/c2ccccc2C(=O)Nc2ccccc2)C1 measured_target="Venezuelan equine encephalitis virus" experimental_readout=pEC50 comparative_sign=< recorded_value=4.60
chemical_string=COc1cccc(-n2c(CN3CCNCC3)nc3ccc([N+](=O)[O-])cc3c2=O)c1 measured_target="Venezuelan equine encephalitis virus" experimental_readout=pEC50 comparative_sign== recorded_value=5.29
chemical_string=O=c1c2cc([N+](=O)[O-])ccc2nc(CN2CCCCC2)n1-c1ccccc1F measured_target="Venezuelan equine encephalitis virus" experimental_readout=pEC50 comparative_sign== recorded_value=5.33
chemical_string=O=c1c2cc([N+](=O)[O-])ccc2nc(CN2CCNCC2)n1-c1ccccc1F measured_target="Venezuelan equine encephalitis virus" experimental_readout=pEC50 comparative_sign== recorded_value=6.70
chemical_string=CN1CCN(C)/C(=N/c2ccc([N+](=O)[O-])cc2C(=O)NCc2ccccc2)C1 measured_target="Venezuelan equine encephalitis virus" experimental_readout=pEC50 comparative_sign== recorded_value=5.43
chemical_string=CCN1CCN(Cc2nc3ccc([N+](=O)[O-])cc3c(=O)n2-c2ccccc2F)CC1 measured_target="Venezuelan equine encephalitis virus" experimental_readout=pEC50 comparative_sign== recorded_value=6.10
